Biological target: Transcriptional enhancer factor TEF-4 (Homo sapiens, UniProt Q15562)
Sequence (Q15562 whole entry): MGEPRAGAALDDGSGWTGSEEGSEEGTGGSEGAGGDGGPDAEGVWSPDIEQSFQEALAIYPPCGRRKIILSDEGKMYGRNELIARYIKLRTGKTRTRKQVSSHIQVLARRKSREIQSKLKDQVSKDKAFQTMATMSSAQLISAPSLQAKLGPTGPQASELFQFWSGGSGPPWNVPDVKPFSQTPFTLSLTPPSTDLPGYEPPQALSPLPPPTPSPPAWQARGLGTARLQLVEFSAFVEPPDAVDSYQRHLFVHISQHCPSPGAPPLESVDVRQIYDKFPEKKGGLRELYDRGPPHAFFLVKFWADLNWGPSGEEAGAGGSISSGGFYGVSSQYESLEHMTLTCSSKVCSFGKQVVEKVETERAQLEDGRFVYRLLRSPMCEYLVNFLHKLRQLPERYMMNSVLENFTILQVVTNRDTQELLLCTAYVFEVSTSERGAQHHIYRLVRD
Assay: Inhibition of TEAD2 (unknown origin) palmitoylation in the presence of alkyne-palmitoyl-CoA

| Compound structure string | IC50 (nM) |
| --- | --- |
| O=C(CSc1nnc[nH]1)Nc1ccc(C23CC4CC(CC(C4)C2)C3)cc1 | 710 |

---

Each record here notes measured IC50.
Tested on: NCI-H226
Test: Antiproliferative activity against human NCI-H226 assessed as cell growth inhibition
Type: functional, cell-based

| Compound structure string | IC50 |
| --- | --- |
| C=CC(=O)Nc1cc(S(=O)(=O)NC)ccc1Oc1cccc(C(F)(F)F)c1 | 5 µM |
| C=CC(=O)Nc1ccccc1Nc1ccc(C(F)(F)F)cc1 | 1.5 µM |

---

Molecular target: Transcriptional enhancer factor TEF-5 (Homo sapiens)
Sequence (Q99594 whole entry): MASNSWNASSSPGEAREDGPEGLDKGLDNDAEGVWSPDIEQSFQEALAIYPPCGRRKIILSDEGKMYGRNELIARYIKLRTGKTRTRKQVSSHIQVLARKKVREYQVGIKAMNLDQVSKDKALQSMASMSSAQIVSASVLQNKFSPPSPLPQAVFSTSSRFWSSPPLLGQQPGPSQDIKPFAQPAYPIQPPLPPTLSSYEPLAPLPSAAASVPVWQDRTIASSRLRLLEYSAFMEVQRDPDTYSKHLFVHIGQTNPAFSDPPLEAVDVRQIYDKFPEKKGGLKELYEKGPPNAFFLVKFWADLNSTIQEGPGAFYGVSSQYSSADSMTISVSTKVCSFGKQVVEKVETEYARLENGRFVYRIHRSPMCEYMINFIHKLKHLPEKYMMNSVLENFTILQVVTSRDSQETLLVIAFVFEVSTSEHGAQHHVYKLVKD
Assay: Inhibition of His-tagged TEAD3 (unknown origin) preincubated for 30 mins followed by biotinylated lipid pocket addition and measured after 60 mins by TR-FRET assay

| Compound structure string | IC50 |
| --- | --- |
| C=CC(=O)Nc1cc(/C=C/C2CCC(F)(F)CC2)c2c(c1F)CCO2 | < 100 nM |
| C=CC(=O)Nc1cc(/C=C/C2CCC(F)(F)CC2)c(C#N)cn1 | < 100 nM |
| C=CC(=O)Nc1cc(/C=C/[C@H]2CC[C@H](C(F)(F)F)CC2)c(OC)nn1 | < 100 nM |

---

Assay: Antiproliferative activity against human OCI-M1 cells assessed as cell growth inhibition
Assay type: functional, cell-based

| Compound structure string | Units | IC50 |
| --- | --- | --- |
| O=C(O)c1ccccc1Nc1ccc(Nc2ccc(C34CC5CC(CC(C5)C3)C4)cc2)cc1 | nM | 159 |

---

Target: YAP1-TEAD4 (Homo sapiens, UniProt Q15561)
Sequence (P46937 whole entry, the tested form may be a part): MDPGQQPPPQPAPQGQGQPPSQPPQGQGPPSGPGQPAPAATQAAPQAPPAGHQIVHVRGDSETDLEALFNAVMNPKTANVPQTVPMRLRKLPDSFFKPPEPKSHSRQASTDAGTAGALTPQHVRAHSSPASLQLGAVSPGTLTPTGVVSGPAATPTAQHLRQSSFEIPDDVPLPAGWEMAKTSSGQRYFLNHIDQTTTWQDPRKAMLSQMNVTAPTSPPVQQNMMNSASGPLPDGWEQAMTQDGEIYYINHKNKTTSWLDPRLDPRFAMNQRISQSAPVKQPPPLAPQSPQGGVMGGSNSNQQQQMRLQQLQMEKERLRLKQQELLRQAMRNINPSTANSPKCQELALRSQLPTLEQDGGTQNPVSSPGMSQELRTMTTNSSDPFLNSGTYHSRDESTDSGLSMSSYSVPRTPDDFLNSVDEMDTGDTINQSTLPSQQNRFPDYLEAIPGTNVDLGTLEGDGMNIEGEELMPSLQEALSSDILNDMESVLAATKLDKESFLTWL
Sequence (Q15561 whole entry, the tested form may be a part): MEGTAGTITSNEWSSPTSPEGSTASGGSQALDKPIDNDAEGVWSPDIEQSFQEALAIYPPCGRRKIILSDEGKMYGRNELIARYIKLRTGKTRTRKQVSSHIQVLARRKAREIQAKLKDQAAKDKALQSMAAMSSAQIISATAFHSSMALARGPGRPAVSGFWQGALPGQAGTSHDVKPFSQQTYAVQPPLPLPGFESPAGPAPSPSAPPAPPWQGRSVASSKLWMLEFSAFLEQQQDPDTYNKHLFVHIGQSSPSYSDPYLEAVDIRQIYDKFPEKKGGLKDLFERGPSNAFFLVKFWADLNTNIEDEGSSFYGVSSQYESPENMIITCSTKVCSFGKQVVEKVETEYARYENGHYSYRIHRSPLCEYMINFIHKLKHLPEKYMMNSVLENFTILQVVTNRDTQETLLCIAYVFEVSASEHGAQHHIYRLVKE
Assay: Inhibition of Avi-His-tagged human TEAD4 (217 to 434 residues)/N-biotinylated-N-terminal Cy5-labelled human YAP (60 to 100 residues) incubated for 1 hr by TR FRET assay
Type: protein-complex assay
IC50 by entry:
Quantity: IC50

| Compound structure string | Measurement |
| --- | --- |
| COCCOc1ccc(C(N)=O)c(-c2c(Cl)c(F)cc3c2[C@H](C)[C@@](CN)(c2ccccc2)O3)c1F | < 2 nM |
| CNC[C@]1(c2ccccc2)Oc2cc(F)c(Cl)c(-c3c(C(N)=O)ccc(OC)c3F)c2[C@@H]1C | < 2 nM |
| COc1ccc(C(N)=O)c(-c2c(Cl)c(F)cc3c2[C@H](CO)[C@@](CN)(c2ccccc2)O3)c1F | < 2 nM |

---

Target: UniProt P28347
Sequence (P28347 whole entry): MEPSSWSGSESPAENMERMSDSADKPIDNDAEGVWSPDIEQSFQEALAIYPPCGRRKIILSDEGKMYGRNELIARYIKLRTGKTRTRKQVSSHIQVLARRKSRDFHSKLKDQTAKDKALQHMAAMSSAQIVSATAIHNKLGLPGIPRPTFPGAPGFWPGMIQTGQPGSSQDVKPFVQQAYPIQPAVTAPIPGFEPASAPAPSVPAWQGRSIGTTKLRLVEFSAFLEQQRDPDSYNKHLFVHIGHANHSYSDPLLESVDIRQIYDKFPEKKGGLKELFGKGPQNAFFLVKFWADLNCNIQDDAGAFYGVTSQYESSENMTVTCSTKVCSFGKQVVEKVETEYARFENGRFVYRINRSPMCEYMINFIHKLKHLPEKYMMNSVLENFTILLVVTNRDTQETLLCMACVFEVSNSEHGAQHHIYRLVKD
Test: Inhibition of TEAD1 mediated gene transcription in human MCF7 cells incubated overnight by luciferase reporter assay
Assay type: cell-based
pIC50: −log10 of the molar value.
# reported pIC50; entries follow

| Compound | pIC50 |
| --- | --- |
| C=CC(=O)NC1CC2(CC(NCc3cccc(C(F)(F)F)c3)C2)C1 (stereo not drawn) | > 7.00 |
| C=CC(=O)NC1CC(COc2cccc(C(F)(F)F)c2)C1 (stereo not drawn) | > 7.00 |
| C=CC(=O)NC12CC(COc3cccc(C(F)(F)F)c3)(C1)C2 | > 7.00 |

---

Target: Transcriptional enhancer factor TEF-3 (Homo sapiens)
Sequence (Q15561 whole entry, the tested form may be a part): as the sequence (Q15561 whole entry, the tested form may be a part) above
Test: Binding affinity to His-tagged TEAD4 YAP-binding domain (217 to 434 residues) (unknown origin) expressed in Escherichia coli BL21 (DE3) cells by isothermal titration calorimetry
pKd: −log10 of the molar value.
Quick reference: pKd of the listed items.
Quantity: pKd

| Compound structure string | Measurement target | Measurement |
| --- | --- | --- |
| O=C(O)c1ccccc1Nc1cccc(Br)c1 | Transcriptional enhancer factor TEF-3 (Homo sapiens) | 3.63 |
| O=C(O)c1ccccc1Nc1ccc(OC(F)F)cc1 | Transcriptional enhancer factor TEF-3 (Homo sapiens) | 4.51 |

Origin of measurements: ChEMBL document CHEMBL5360521
